target_under_test: T1, OsHOS59 aa 1-100 (Oryza sativa, UniProt Q94LW4 113-212)
T1 construct: bait, Gal4 DBD fusion; also called PN20559; O. sativa Homeobox Protein HOS59, Fragment
T1 sequence: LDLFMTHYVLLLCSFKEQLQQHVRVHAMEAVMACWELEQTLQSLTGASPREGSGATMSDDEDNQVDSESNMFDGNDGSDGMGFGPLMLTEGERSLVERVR
test_protocol: Y2H; output trait library
readout_label: binding result

{"binder": "OsPN23388 aa 229-331 (other, prey, AD fusion; also called Novel Protein PN23388) LKTAKEKGLQRLVHLSSDLARQVATILENAQTFQENRKIGDVPSVNSNSSGVPSTQGEIDEIHQERQKFVEVAKKNVRDRRARRMQSCEVPIHPITPVKLMES", "result": "binds"}
{"binder": "OsPN23829 aa 2-226 (other, prey, AD fusion; also called Novel Protein PN23829 Putative S-Adenosyl-L-Homocysteine Hydrolase) ALSVEKTSSGREYKVKDLSQADFGRLEIELAEVEMPGLMACRAEFGPSQPFKGARISGSLHMTIQTAVLIETLTALGAEVRWCSCNIFSTQDHAAAAIARDSAAVFAWKGETLEEYWWCTERCLDWGVGGGPDLIVDDGGDATLLIHEGVKAEEEFEKSGKVPDPESTDNAEFKIVLTIIRDGLKSDPSKYRKMKERLVGVSEETTTGVKRLYQMQETGALLFPA", "result": "binds"}
{"binder": "OsAAK00972 aa 236-350 (other, prey, AD fusion; also called PN23253; O. sativa Putative Homeodomain Protein OsAAK00972) AEGGSKGEGVSSNPQESTANAAPEISAAEKQELQNKMAKLMAMLDEVDRKYKHYYHQMQIVVSSFDMVAGSGAAKPYTAVALQTISKHFRCLKDAINDQINVIRKKLGEEESSSG", "result": "binds"}
